Tested on: Escherichia coli TOP10
run description: shrunken log2 fold change of peptide-encoding DNA abundance (4.5 h post-induction vs induction); higher = less antimicrobial activity (less host growth inhibition)
condition parameters: time post-induction: 4.5 h; library: site-saturation at positions 5, 18, 19, 20
observation type: shrunken log2 fold change
Could you respond with only the numeric value?

Q) # get_value(readout='shrunken log2 fold change', item= RRIRARPPRLPRPRPRPTFDPRP )
A) 0.399

Q) Query (sequence): RRIRERPPRLPRPRPRPGPWPRP ; field requested: shrunken log2 fold change
A) 0.186

Q) // shrunken log2 fold change lookup, key: RRIRDRPPRLPRPRPRPIKAPRP
A) -0.149

Q) // query shrunken log2 fold change value for entry RRIRLRPPRLPRPRPRPHQKPRP
A) -0.0932

Q) Param item = RRIRKRPPRLPRPRPRPSDYPRP ; retrieve measured shrunken log2 fold change.
A) -0.08

Q) Consider the sequence shown here: RRIRMRPPRLPRPRPRPFLRPRP What is its recorded shrunken log2 fold change?
A) -0.22

Q) Quick one: shrunken log2 fold change of RRIRCRPPRLPRPRPRPGQDPRP ?
A) -0.0365

Q) State the recorded shrunken log2 fold change for this entry: RRIRHRPPRLPRPRPRPGRGPRP
A) 0.529

Q) Using the record for RRIRWRPPRLPRPRPRPENTPRP , report its shrunken log2 fold change.
A) 0.167

Q) Which shrunken log2 fold change value is on record for RRIRKRPPRLPRPRPRPQKKPRP ?
A) -0.111

Q) Requested read-out: shrunken log2 fold change. Entry: RRIRCRPPRLPRPRPRPRMKPRP
A) 0.0252

Q) Reported shrunken log2 fold change, sequence RRIRDRPPRLPRPRPRPMWMPRP : ____
A) 0.149

Q) What does the record list as shrunken log2 fold change for RRIRRRPPRLPRPRPRPDWYPRP ?
A) 0.0693

Q) Which shrunken log2 fold change value belongs to RRIRPRPPRLPRPRPRPSMKPRP ?
A) -0.223

Q) What measured shrunken log2 fold change goes with RRIRVRPPRLPRPRPRPCIYPRP ?
A) -0.533

---

I'd appreciate it if you could supply shrunken log2 fold change values for the items below.
System: Escherichia coli TOP10;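 also: peptides expressed intracellularly from a pBAD plasmid library in pooled LB shake-flask culture, induced with 0.3% L-arabinose, DNA abundance read by NGS, three biological replicates, DESeq2 with apeglm shrinkage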
run description: shrunken log2 fold change of peptide-encoding DNA abundance (4.5 h post-induction vs induction); higher = less antimicrobial activity (less host growth inhibition)
condition parameters: time post-induction: 4.5 h; library: site-saturation at positions 5, 18, 19, 20
Give the figure only, with no unit attached.

Q) What measured shrunken log2 fold change goes with RRIRSRPPRLPRPRPRPAAWPRP ?
A) 0.226

Q) GET /values?readout=shrunken log2 fold change&item= RRIRYRPPRLPRPRPRPWVEPRP
A) 0.0344

Q) # query: shrunken log2 fold change of entry RRIRSRPPRLPRPRPRPPQEPRP
A) 0.295

Q) Look at this sequence and give its reported shrunken log2 fold change. RRIRDRPPRLPRPRPRPLDTPRP
A) 0.0803

Q) Suppose we examine the sequence RRIRDRPPRLPRPRPRPCSYPRP ; what shrunken log2 fold change value has been reported?
A) -0.138

Q) // lookup shrunken log2 fold change for RRIRCRPPRLPRPRPRPSAHPRP
A) -0.0707

Q) Entry RRIRDRPPRLPRPRPRPRTVPRP has what shrunken log2 fold change?
A) -0.142

Q) // lookup shrunken log2 fold change for RRIRVRPPRLPRPRPRPAGKPRP
A) -0.308

Q) Which shrunken log2 fold change is listed for RRIRSRPPRLPRPRPRPQADPRP ?
A) -0.0788

Q) # query: shrunken log2 fold change of entry RRIRLRPPRLPRPRPRPERHPRP
A) 0.27

Q) Can you share its shrunken log2 fold change? I mean this sequence: RRIRIRPPRLPRPRPRPPVGPRP
A) 0.59

Q) Record request: shrunken log2 fold change value, item RRIRTRPPRLPRPRPRPYTVPRP
A) -0.0341

Q) Give the measured shrunken log2 fold change of RRIRWRPPRLPRPRPRPPKLPRP .
A) 0.152

Q) Value lookup for shrunken log2 fold change; key = RRIRSRPPRLPRPRPRPRHEPRP
A) -0.0516

Q) Quick one: shrunken log2 fold change of RRIRMRPPRLPRPRPRPLYNPRP ?
A) -0.335

Q) Fill blank: measured shrunken log2 fold change of the sequence RRIRWRPPRLPRPRPRPETPPRP is ____.
A) 1.33

Q) // shrunken log2 fold change lookup, key: RRIRYRPPRLPRPRPRPKQFPRP
A) -0.155

Q) Param item = RRIRLRPPRLPRPRPRPDQWPRP ; retrieve measured shrunken log2 fold change.
A) -0.158

Q) Need shrunken log2 fold change of RRIRMRPPRLPRPRPRPDGVPRP , thanks.
A) 0.0632

Q) Given RRIRMRPPRLPRPRPRPDESPRP , state its recorded shrunken log2 fold change.
A) 2.38

Q) Which measured shrunken log2 fold change value corresponds to RRIRWRPPRLPRPRPRPMVIPRP ?
A) -0.14

Q) Given the entry RRIRNRPPRLPRPRPRPDSAPRP , report its measured shrunken log2 fold change.
A) -0.126

Q) Return reported shrunken log2 fold change; argument: RRIRQRPPRLPRPRPRPGSEPRP
A) 0.0985

Q) Fill in the blank: the reported shrunken log2 fold change of RRIRQRPPRLPRPRPRPKPEPRP is ____.
A) -0.0759

Q) For the sequence shown here, RRIRNRPPRLPRPRPRPWRTPRP , give the reported shrunken log2 fold change.
A) -0.323

Q) What shrunken log2 fold change value was documented for this sequence, RRIRSRPPRLPRPRPRPVSFPRP ?
A) 0.118

Q) Endpoint output: shrunken log2 fold change of RRIRLRPPRLPRPRPRPKAEPRP . Value?
A) 0.375

Q) Query: shrunken log2 fold change; subject: RRIRFRPPRLPRPRPRPEQWPRP
A) -0.156

Q) # input sequence: RRIRLRPPRLPRPRPRPPIEPRP ; wanted: its shrunken log2 fold change
A) -0.424

Q) Which shrunken log2 fold change value belongs to RRIRARPPRLPRPRPRPCTRPRP ?
A) -0.00176

Q) shrunken log2 fold change lookup needed for RRIRTRPPRLPRPRPRPPVCPRP , thanks.
A) 0.713

Q) Item under review: RRIRLRPPRLPRPRPRPARSPRP . Reported shrunken log2 fold change?
A) 0.343

Q) # get_value(readout='shrunken log2 fold change', item= RRIRSRPPRLPRPRPRPWWDPRP )
A) -0.137

Q) Tell me the measured shrunken log2 fold change of RRIRHRPPRLPRPRPRPNWDPRP , please.
A) -0.332

Q) Find the recorded shrunken log2 fold change belonging to RRIRERPPRLPRPRPRPVPYPRP and report it.
A) -0.132

Q) Which measured shrunken log2 fold change value corresponds to RRIRRRPPRLPRPRPRPFETPRP ?
A) -0.207

Q) May I ask what shrunken log2 fold change has been recorded for RRIRVRPPRLPRPRPRPQREPRP ?
A) -0.0361

Q) Reported shrunken log2 fold change, sequence RRIRQRPPRLPRPRPRPGAWPRP : ____
A) 0.256

Q) Can you look up the measured shrunken log2 fold change of RRIRDRPPRLPRPRPRPLVWPRP for me?
A) 0.831

Q) // query shrunken log2 fold change value for entry RRIRKRPPRLPRPRPRPHPAPRP
A) 0.429

Q) May I ask what shrunken log2 fold change has been recorded for RRIRARPPRLPRPRPRPFWWPRP ?
A) 0.923

Q) Quick check: shrunken log2 fold change of RRIRTRPPRLPRPRPRPMHYPRP ?
A) -1.41

Q) I'd like to know its shrunken log2 fold change. The sequence in question is RRIRNRPPRLPRPRPRPAQHPRP
A) 0.00182

Q) Name the recorded shrunken log2 fold change for RRIRKRPPRLPRPRPRPCSSPRP .
A) -0.0581

Q) Can you share its shrunken log2 fold change? I mean this sequence: RRIRGRPPRLPRPRPRPSSAPRP
A) 0.592

Q) Which shrunken log2 fold change is reported for this sequence? RRIRYRPPRLPRPRPRPCVGPRP
A) -1.87

Q) Query: shrunken log2 fold change; subject: RRIRARPPRLPRPRPRPRHKPRP
A) 0.316

Q) Which value of shrunken log2 fold change has been reported for RRIRYRPPRLPRPRPRPRIAPRP in the records?
A) 0.00898

Q) Look at this sequence and give its reported shrunken log2 fold change. RRIRCRPPRLPRPRPRPFRFPRP
A) -0.83

Q) Which value of shrunken log2 fold change has been reported for RRIRDRPPRLPRPRPRPKNGPRP in the records?
A) 0.74

Q) Find the recorded shrunken log2 fold change belonging to RRIRPRPPRLPRPRPRPLAFPRP and report it.
A) -0.0389

Q) Which shrunken log2 fold change value belongs to RRIRCRPPRLPRPRPRPASAPRP ?
A) 0.248

Q) Reported shrunken log2 fold change, sequence RRIRRRPPRLPRPRPRPHNKPRP : ____
A) -0.276

Q) Entry RRIRSRPPRLPRPRPRPSVEPRP : reported shrunken log2 fold change = ?
A) -0.0505

Q) I am curious: what shrunken log2 fold change value has been reported for RRIRMRPPRLPRPRPRPVWSPRP ?
A) 0.709

Q) Could you share which shrunken log2 fold change value was measured for RRIRYRPPRLPRPRPRPRLNPRP ?
A) -0.313

Q) What value of shrunken log2 fold change has been reported for the following sequence? RRIRDRPPRLPRPRPRPQVYPRP
A) 0.175

Q) # query: shrunken log2 fold change of entry RRIRYRPPRLPRPRPRPKNFPRP
A) -0.663

Q) GET /values?readout=shrunken log2 fold change&item= RRIRDRPPRLPRPRPRPVQIPRP
A) -0.0711

Q) shrunken log2 fold change lookup needed for RRIRGRPPRLPRPRPRPTTLPRP , thanks.
A) 0.507

Q) Query: shrunken log2 fold change; subject: RRIRPRPPRLPRPRPRPDRTPRP
A) -0.25

Q) Quick one: shrunken log2 fold change of RRIRKRPPRLPRPRPRPGYVPRP ?
A) -0.0738

Q) May I ask what shrunken log2 fold change has been recorded for RRIRLRPPRLPRPRPRPQLKPRP ?
A) -0.0336
